Provenance of the data: patent US5466671A

Tested on: Haemophilus influenzae
Assay: Inhibition zone assay (agar plate)
Type: cell-based
Settings: 50 nanomoles/well, 3 mm wells
Residues, ends and D or L forms follow the SMILES beside them.
READOUT NAME: inhibition zone diameter (number of plus signs)

INSERT INTO measurements (compound, assay_value) VALUES
  ('CC[C@H](C)[C@H](NC(=O)[C@@H]1CCCN1C(=O)[C@H](C)NC(=O)[C@@H]1CCCN1C(=O)[C@H](CCCNC(=N)N)NC(=O)[C@@H]1CCCN1C(=O)[C@H](CCCNC(=N)N)NC(=O)[C@@H](N)CC(N)=O)C(=O)N[C@@H](CCC(N)=O)C(=O)N1CCC[C@H]1C(=O)N[C@@H](CCCNC(=N)N)C(=O)N1CCC[C@H]1C(=O)N1CCC[C@H]1C(=O)N[C@@H](Cc1c[nH]cn1)C(=O)N1CCC[C@H]1C(=O)N[C@@H](CCCNC(=N)N)C(=O)N[C@@H](CC(C)C)C(=O)O [Cd 1-] (H-NRPRPAPIQPRPPHPRL-OH)', '+++ ((+++) 10-14 mm)'),
  ('CC(C)C[C@H](NC(=O)[C@H](CCCNC(=N)N)NC(=O)[C@@H]1CCCN1C(=O)[C@H](Cc1c[nH]cn1)NC(=O)[C@@H]1CCCN1C(=O)[C@@H]1CCCN1C(=O)[C@H](CCCNC(=N)N)NC(=O)[C@@H]1CCCN1C(=O)[C@H](C)NC(=O)[C@@H]1CCCN1C(=O)[C@@H](NC(=O)[C@H](Cc1ccc(O)cc1)NC(=O)[C@@H](NC(=O)[C@@H]1CCCN1C(=O)[C@H](CCCNC(=N)N)NC(=O)[C@@H](N)CC(N)=O)[C@@H](C)O)C(C)C)C(=O)O [Ck A] (H-NRPTYVPAPRPPHPRL-OH)', '++ ((++) 7-9 mm)'),
  ('CC(C)C[C@H](NC(=O)[C@H](CCCNC(=N)N)NC(=O)[C@@H]1CCCN1C(=O)[C@H](Cc1c[nH]cn1)NC(=O)[C@@H]1CCCN1C(=O)[C@@H]1CCCN1C(=O)[C@H](CCCNC(=N)N)NC(=O)[C@@H]1CCCN1C(=O)[C@@H]1CCCN1C(=O)[C@@H](NC(=O)[C@H](CCC(N)=O)NC(=O)[C@H](CCC(N)=O)NC(=O)[C@@H]1CCCN1C(=O)[C@H](CCCNC(=N)N)NC(=O)[C@@H]1CCCN1C(=O)[C@H](CCCCN)NC(=O)CN)C(C)C)C(=O)O [Ho +, G K P R P Q Q V P P R P P H P R L] (H-GKPRPQQVPPRPPHPRL-OH)', '+++ ((+++) 10-14 mm)'),
  ('CC[C@H](C)[C@H](NC(=O)[C@H](Cc1ccc(O)cc1)NC(=O)[C@@H](NC(=O)[C@@H]1CCCN1C(=O)[C@H](CCCNC(=N)N)NC(=O)[C@@H](N)CC(N)=O)C(C)C)C(=O)N1CCC[C@H]1C(=O)N1CCC[C@H]1C(=O)N1CCC[C@H]1C(=O)N[C@@H](CCCNC(=N)N)C(=O)N1CCC[C@H]1C(=O)N1CCC[C@H]1C(=O)N[C@@H](Cc1c[nH]cn1)C(=O)N1CCC[C@H]1C(=O)N[C@@H](CCCNC(=N)N)C(=O)N[C@@H](CC(C)C)C(=O)O [Bb-A] (H-NRPVYIPPPRPPHPRL-OH)', '++ ((++) 7-9 mm)');
